# Tested on: Enterobacter cloacae
# assay_summary: Antibacterial activity against Enterobacter cloacae VA-417/02 assessed as bacterial growth inhibition incubated for 18 hrs by CLSI based micro-dilution broth method
# Format: functional
observed_property: MIC
State the result as a value with its unit after it.

Answered examples (4):
CCCCCCCCN(CCCCCCCCNC(=N)NCC1CC1)C(=O)N(CCCCCCNC(=N)NCC1CC1)CCCCCCNC(=N)NCC1CC1 = 8 µg/mL
N=C(N)NCCCCCCCCN(CCCCCCCCNC(=N)N)C(=O)N(CCCCCCCCNC(=N)N)CCCCCCCCNC(=N)NCC1CC1.O=C(O)C(F)(F)F = 8 µg/mL
N=C(N)NCCCCCCCCN(CCCCCCCCN)C(=O)N(CCCCCCCCNC(=N)N)CCCCCCCCNC(=N)N = 8 µg/mL
N=C(N)NCCCCCCCCN(CCCCCCCCNC(=N)NCC1CC1)C(=O)N(CCCCCCCCNC(=N)NCC1CC1)CCCCCCCCNC(=N)NCC1CC1.O=C(O)C(F)(F)F = 2 µg/mL

For this molecule ( N=C(NCCCCCCCCNC(N)=O)NCC1CC1.O=C(O)C(F)(F)F ), measured MIC is 4 µg/mL

----------
# assay_summary: Apparent permeability of the compound across bacterial inner membrane mimic POPE/POPG (6:4) in PBS buffer at pH 7.4 incubated for 5 hrs in presence of 1,3-bis(8-aminooctyl)-1,3-bis(8- carbamimidamidooctyl)urea trifluoroacetate salt by PAMPA based UV-Vis spectrophotometric analysis
observed_property: Papp at 5 h (×10⁻⁶ cm/s)
Give bare numbers, in ×10⁻⁶ cm/s.

For O=C(N[C@H](CO)[C@H](O)c1ccc([N+](=O)[O-])cc1)C(Cl)Cl the compound record lists Papp at 5 h as 6.11

----------
Exercise: for every item that follows, state its recorded hemolysis at 0.5 h, 4 ug/ml.
# assay_summary: Hemolytic activity against human RBC at 4 ug/ml incubated for 30 mins (reference value: 0%)
# Format: toxicity, cell-based, Erythrocyte
# stated_conditions: human red blood cells (erythrocytes), at 4 µg/mL, read-out: Activity
Give bare numbers, in %.

Please review the entries below; each comes with its answer.
CCCCCCCCN(CCCCCCCCNC(=N)NCC1CC1)C(=O)N(CCCCCCNC(=N)NCC1CC1)CCCCCCNC(=N)NCC1CC1 = 0.5
N=C(N)NCCCCCCCCN(CCCCCCCCNC(=N)NCC1CC1)C(=O)N(CCCCCCCCNC(=N)N)CCCCCCCCNC(=N)NCC1CC1 = 0.4
N=C(NCCCCCCCCNC(N)=O)NCC1CC1.O=C(O)C(F)(F)F = 0
N=C(N)NCCCCCCCCN(CCCCCCCCN)C(=O)N(CCCCCCCCN)CCCCCCCCNC(=N)N.O=C(O)C(F)(F)F = 0

Entry N=C(N)NCCCCCCCCN(CCCCCCCCNC(=N)NCC1CC1)C(=O)N(CCCCCCCCNC(=N)NCC1CC1)CCCCCCCCNC(=N)NCC1CC1.O=C(O)C(F)(F)F , hemolysis at 0.5 h, 4 ug/ml reported as 0

----------
# System: Klebsiella pneumoniae
# assay_summary: Antibacterial activity against pan drug-resistant Klebsiella pneumoniae S1-081Rb assessed as bacterial growth inhibition incubated for 18 hrs by CLSI based micro-dilution broth method
# Type: functional
observed_property: MIC (µg/mL)
One number for each entry, in µg/mL.

N=C(N)NCCCCCCCCN(CCCCCCCCN)C(=O)N(CCCCCCCCNC(=N)N)CCCCCCCCNC(=N)N = 16

Dear reader, for each entry below, please note its MIC.
1. N=C(NCCCCCCCCNC(N)=O)NCC1CC1.O=C(O)C(F)(F)F
2. CCCCCCCCN(CCCCCCCCNC(=N)NCC1CC1)C(=O)N(CCCCCCNC(=N)NCC1CC1)CCCCCCNC(=N)NCC1CC1
3. N=C(N)NCCCCCCCCN(CCCCCCCCNC(=N)NCC1CC1)C(=O)N(CCCCCCCCNC(=N)NCC1CC1)CCCCCCCCNC(=N)NCC1CC1.O=C(O)C(F)(F)F
4. N=C(N)NCCCCCCCCN(CCCCCCCCNC(=N)N)C(=O)N(CCCCCCCCNC(=N)N)CCCCCCCCNC(=N)NCC1CC1.O=C(O)C(F)(F)F

1: 4; 2: 8; 3: 2; 4: 8

Where do these numbers come from? They come from ChEMBL document CHEMBL5154741.
